Where these numbers come from: the RNAGym collection of RNA variant scans (doi:10.7554/elife.80360)

B1: HDV Ribozyme (parent)
chain: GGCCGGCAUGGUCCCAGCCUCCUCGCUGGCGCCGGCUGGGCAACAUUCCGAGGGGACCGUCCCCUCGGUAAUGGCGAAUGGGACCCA

Variants of: B1
protocol: self-cleavage, relative activity (ratio to wild type); higher = more cleavage; co-transcriptional
Lab note: anything with self-cleavage at or over 0.2 counts as met; the rest go in not met.

Examples with answers:
* GGCCGGCAUGGUCCCAGCGUCCUCGCUGGCGCCGGCUGGGCAACAUUCCGAGGGGACCGUCCCCUCGGUCAUGGCGAAUGGGACCCA | not met
* GGCCGGCAUGGUCCCAGCCUCCUCGCUGGCGCCGGCUGGGCAACAUUCCGAGGGCACCGUCCCCUCGGUAAUGGCGAACGGGACCCA | met
* GGCCUGCAUGGUCCCAGCCUCCUCGCUGGCGCCUGCUGGGCAACAUUCCGAGGGGACCGUCCCCUCGGUAAUGGCGAAUGGGACCCA | not met

Asked: Given GGCCGGCAUGGUCCCAGCCUCCUCGCUGGCGCCGGCUGGGCAACAUUCCGAUGGGACCGUCCGCUCGGUAAUGGCGAAUGGGACCCA , state whether its self-cleavage is at least 0.2.
Given back: met

Asked: Tell me whether self-cleavage is at least 0.2 here: GGCCGGCAUGGUCCCAGCCUCCUCGCUGGCGCCGGCUGGGUAACAUUCCGAGGGGACCGUCCCCUCGGUAAUCGCGAAUGGGACCCA
Given back: met

Asked: Record GGCCGGCAUGGUCCCAGCCUCCUCGCUGGCGCCGGCUGGGCAACAUUCCGUGGGGACCGUCCCCUCGGUAAUGGCGGAUGGGACCCA ; criterion: self-cleavage no lower than 0.2. Met?
Given back: met
